Biological target: human TLR7 (Homo sapiens, UniProt Q9NYK1)
Construct: expressed in transfected cells; host or cells: HEK 293 (human embryonic kidney 293), stably transfected; co-transfected pNifty-Luciferase reporter
Sequence (Q9NYK1 27-1049): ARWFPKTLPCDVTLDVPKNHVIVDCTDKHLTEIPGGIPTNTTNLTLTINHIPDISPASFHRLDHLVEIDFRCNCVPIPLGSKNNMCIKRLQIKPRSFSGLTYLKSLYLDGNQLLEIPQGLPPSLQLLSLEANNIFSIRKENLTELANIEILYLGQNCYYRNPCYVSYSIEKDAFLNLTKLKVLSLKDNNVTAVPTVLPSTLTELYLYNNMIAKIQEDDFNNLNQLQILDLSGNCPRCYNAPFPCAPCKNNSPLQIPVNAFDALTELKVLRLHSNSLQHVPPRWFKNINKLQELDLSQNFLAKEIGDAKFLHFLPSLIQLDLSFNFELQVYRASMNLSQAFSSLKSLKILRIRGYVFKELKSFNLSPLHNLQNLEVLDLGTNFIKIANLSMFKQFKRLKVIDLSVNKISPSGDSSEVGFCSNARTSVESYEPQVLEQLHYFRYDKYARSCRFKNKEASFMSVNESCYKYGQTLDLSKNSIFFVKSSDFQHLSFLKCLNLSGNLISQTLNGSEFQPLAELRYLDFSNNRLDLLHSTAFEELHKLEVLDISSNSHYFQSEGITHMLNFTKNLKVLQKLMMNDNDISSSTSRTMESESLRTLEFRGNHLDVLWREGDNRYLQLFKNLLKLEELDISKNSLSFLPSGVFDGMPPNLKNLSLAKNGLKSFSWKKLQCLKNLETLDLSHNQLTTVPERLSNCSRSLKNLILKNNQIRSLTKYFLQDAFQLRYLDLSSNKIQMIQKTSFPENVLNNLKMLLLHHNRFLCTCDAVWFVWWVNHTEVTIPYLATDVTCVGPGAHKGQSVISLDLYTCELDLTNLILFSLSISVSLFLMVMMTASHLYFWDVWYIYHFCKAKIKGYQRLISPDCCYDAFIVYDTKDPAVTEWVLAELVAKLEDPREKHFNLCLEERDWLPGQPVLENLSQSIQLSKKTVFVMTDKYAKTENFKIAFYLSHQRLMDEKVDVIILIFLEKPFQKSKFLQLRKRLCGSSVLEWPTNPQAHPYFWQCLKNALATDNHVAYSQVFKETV
Assay: Reporter gene assay: HEK293 cells stably transfected with human TLR7 and NF-kB-driven luciferase reporter
Assay type: cell-based
pEC50: −log10 of the molar value.
Label condition met when pEC50 >= 6; otherwise condition not met.

{"given_smiles": "Cc1ccc2c(c1)nc(N)c1ncc(CCc3ccc(OCCCC(F)(F)P(=O)(O)O)cc3C)cc12", "group_label": "condition met"}
{"given_smiles": "Cc1ccc2c(c1)nc(N)c1ncc(CCc3ccc(OCCCCCC(F)(F)P(=O)(O)O)cc3C)cc12", "group_label": "condition not met"}
{"given_smiles": "Cc1ccc2c(c1)nc(N)c1ncc(CCc3ccc(OCCCP(=O)(O)O)cc3C)cc12", "group_label": "condition met"}
{"given_smiles": "Cc1cc(OCCOCCOCCC(F)(F)P(=O)(O)O)ccc1CCc1cnc2c(N)nc3cc(CCC(=O)O)ccc3c2c1", "group_label": "condition met"}
